Tested on: ADR-RES
Test: Cytotoxicity assay (cell titer-glo and calcein AM), ADR-RES
Settings: read-out: Cytotoxicity IC50, NCI/ADR RES, CTG; NCI/ADR RES; CTG (cell titer-glo) readout; % error in parentheses
quantity: IC50 (µM)

>>> obsvalue("COc1cc2c(c(OC)c1OC)-c1ccc(OC)c(=O)cc1[C@@H](NC(=O)CN(OC)[C@@H]1O[C@H](C(=O)O)[C@H](O)[C@H](O)[C@H]1O)CC2 [Col18, D-Galacturonoside]")
1.11
>>> obsvalue("CCCCCCCCCC(=O)NC[C@H]1O[C@@H](N(CC(=O)N[C@H]2CCc3cc(OC)c(OC)c(OC)c3-c3ccc(OC)c(=O)cc32)OC)[C@H](O)[C@@H](O)[C@@H]1O [Col59, 6-deoxy-6-N-decanoyl-D-glucosaminoside]")
5.16
>>> obsvalue("COc1cc2c(c(OC)c1OC)-c1ccc(OC)c(=O)cc1[C@@H](NC(=O)CN(OC)[C@H]1C[C@@H](O)[C@H](O)[C@@H](CO)O1)CC2 [Col16, 2-deoxy-D-glucoside]")
1.68
>>> obsvalue("COc1cccc2c1C(=O)c1c(O)c3c(c(O)c1C2=O)C[C@@](O)(C(=O)CO)C[C@@H]3O[C@H]1C[C@H](N)[C@H](O)[C@H](C)O1 [doxorubi]")
0.57
>>> obsvalue("COc1cc2c(c(OC)c1OC)-c1ccc(OC)c(=O)cc1C(NC(=O)CN(OC)C1OC(C)C(O)C(O)C1O)CC2 [Col37, L-rhamnoside]")
4.56
>>> obsvalue("COc1cc2c(c(OC)c1OC)-c1ccc(OC)c(=O)cc1[C@@H](NC(=O)CN(OC)[C@@H]1O[C@H](CN=[N+]=[N-])[C@H](O)[C@H](O)[C@H]1O)CC2 [Col43, 6-deoxy-6-azido-D-galactoside]")
5.04
>>> obsvalue("COc1cc2c(c(OC)c1OC)-c1ccc(OC)c(=O)cc1[C@@H](NC(=O)CN(OC)[C@@H]1OC[C@@H](O)[C@H](O)[C@@H]1O)CC2 [Col1, D-lyxoside]")
2.63
